Give measured viability at 24 h, 32 times MIC for each item. Keep answers brief.
# procedure-summary: Cytotoxicity against human L02 cells assessed as cell survival rate at 32 times MIC incubated for 24 hrs by CCK8 assay
# Type: toxicity, cell-based
# condition: read-out: Survival

Q) Given `CC(C)=CCc1c(OCCCCSc2cc[n+](CC(=O)N(CC(C)C)CC(C)C)cc2)ccc2ccc(=O)oc12.[Br-]` , state its recorded viability at 24 h, 32 times MIC.
A) > 80%

Q) Given `CCCCCNC(=O)C[n+]1ccc(SCCCCCOc2ccc3ccc(=O)oc3c2CC=C(C)C)cc1.[Br-]` , state its recorded viability at 24 h, 32 times MIC.
A) > 80%

* * *

Give measured MIC for each item. Keep answers brief.
# Tested on: Staphylococcus aureus
# procedure-summary: Antibacterial activity against Staphylococcus aureus ATCC 29213 incubated for 16 to 20 hrs by broth microdilution method
# Type: functional
# condition: time 16-20 hrs

Q) Given `CCCCCNC(=O)C[n+]1ccc(SCCCCOc2ccc3ccc(=O)oc3c2CC=C(C)C)cc1.[Br-]` , state its recorded MIC.
A) 4 µg/mL

Q) Given `CC(C)=CCc1c(OCCCCCSc2cc[n+](CC(=O)N3CCOCC3)cc2)ccc2ccc(=O)oc12.[Br-]` , state its recorded MIC.
A) 32 µg/mL

Q) Given `CCCCNC(=O)C[n+]1ccc(SCCCCCOc2ccc3ccc(=O)oc3c2CC=C(C)C)cc1.[Br-]` , state its recorded MIC.
A) 2 µg/mL

Q) Given `CC(C)=CCc1c(OCCCSc2cc[n+](CC(=O)N(C)c3ccccc3)cc2)ccc2ccc(=O)oc12.[Br-]` , state its recorded MIC.
A) 8 µg/mL

Q) Given `CCCCCNC(=O)C[n+]1ccc(SCCCCCOc2ccc3ccc(=O)oc3c2CC=C(C)C)cc1.[Br-]` , state its recorded MIC.
A) 1 µg/mL

Q) Given `COc1ccc2ccc(=O)oc2c1CC=C(C)C` , state its recorded MIC.
A) > 64 µg/mL

Q) Given `CC(C)=CCc1c(OCCCCCSc2cc[n+](CC(=O)N(C)c3ccccc3)cc2)ccc2ccc(=O)oc12.[Br-]` , state its recorded MIC.
A) 2 µg/mL

Q) Given `CCCCN(CCCC)C(=O)C[n+]1ccc(SCCCCCOc2ccc3ccc(=O)oc3c2CC=C(C)C)cc1.[Br-]` , state its recorded MIC.
A) 1 µg/mL

Q) Given `CC(C)=CCc1c(OCCCSc2cc[n+](CC(=O)N(CC(C)C)CC(C)C)cc2)ccc2ccc(=O)oc12.[Br-]` , state its recorded MIC.
A) 2 µg/mL

Q) Given `CC(C)=CCc1c(OCCCCSc2cc[n+](CC(=O)N3CCOCC3)cc2)ccc2ccc(=O)oc12.[Br-]` , state its recorded MIC.
A) 32 µg/mL

Q) Given `CCCN(CCC)C(=O)C[n+]1ccc(SCCCOc2ccc3ccc(=O)oc3c2CC=C(C)C)cc1.[Br-]` , state its recorded MIC.
A) 4 µg/mL

Q) Given `CC(C)=CCc1c(OCCCSc2cc[n+](CC(=O)N(C(C)C)C(C)C)cc2)ccc2ccc(=O)oc12.[Br-]` , state its recorded MIC.
A) 4 µg/mL

Q) Given `CCCNC(=O)C[n+]1ccc(SCCCOc2ccc3ccc(=O)oc3c2CC=C(C)C)cc1.[Br-]` , state its recorded MIC.
A) 8 µg/mL

Q) Given `CCCCNC(=O)C[n+]1ccc(SCCCOc2ccc3ccc(=O)oc3c2CC=C(C)C)cc1.[Br-]` , state its recorded MIC.
A) 2 µg/mL

Q) Given `CC(C)=CCc1c(OCCCCSc2cc[n+](CC(=O)N(C)c3ccccc3)cc2)ccc2ccc(=O)oc12.[Br-]` , state its recorded MIC.
A) 4 µg/mL

Q) Given `CCCN(CCC)C(=O)C[n+]1ccc(SCCCCOc2ccc3ccc(=O)oc3c2CC=C(C)C)cc1.[Br-]` , state its recorded MIC.
A) 2 µg/mL

Q) Given `CC(C)=CCc1c(OCCCCCSc2cc[n+](CC(=O)N(CC(C)C)CC(C)C)cc2)ccc2ccc(=O)oc12.[Br-]` , state its recorded MIC.
A) 1 µg/mL
